Each entry below lists one item and its recorded peptide exchange yield value.
- Target Under Test: T1, HLA-B*08:01 (human)
- T1 construct: MHC monomer first loaded with a UV-sensitive peptide that is cleaved by UV light and exchanged for the test peptide
- Experiment Summary: UV peptide exchange ELISA
- Excerpt: Candidate peptides for T cell based therapies according to the present invention were further tested for their MHC binding capacity (affinity). The individual peptide-MHC complexes were produced by UV-ligand exchange, where a UV-sensitive peptide is cleaved upon UV-irradiation and exchanged with the peptide of interest as analyzed. Only peptide candidates that can effectively bind and stabilize the peptide-receptive MHC molecules prevent dissociation of the MHC complexes. […]
Recorded Metric: peptide exchange yield

{"Binder": "LPAPYQHQL [LPAPYQHQL (SEQ ID NO: 130)]", "Reported Measurement": "20 to 50%"}
{"Binder": "NVKIRFLE [NVKIRFLE (SEQ ID NO: 99)]", "Reported Measurement": "20 to 50%"}
{"Binder": "KLYIHRVTL [KLYIHRVTL (SEQ ID NO: 232)]", "Reported Measurement": "20 to 50%"}
{"Binder": "DMKITVSL [DMKITVSL (SEQ ID NO: 167)]", "Reported Measurement": "50 to 75%"}
